Assay: Terminal half life in CD1 mouse plasma at 562 umol/kg, ip
Format: ADME, organism-based

compound: CCc1n[n+]([O-])c2ccccc2[n+]1[O-]
measure-unit: min
half-life: 11.2

----------
Test: AUC (0 to infinity) in CD1 mouse plasma at 750 umol/kg, ip
Format: ADME, organism-based
Parameters: dose 750 umol/kg, time infinity, route intraperitoneal
readout-label: AUC(0-inf) (µM·h)

compound: CCc1n[n+]([O-])c2ccc(OCCCN3CCOCC3)cc2[n+]1[O-]
measure-unit: µM·h
reported-measurement: 162

----------
System: HT-29
Experiment: Cell viability in anoxic HT29 cells assessed as drug level providing 10% surviving fraction by clonogenic assay
Assay type: cell-based
Settings: human
// reported log10(Activity) for each item listed
readout-label: log10(Activity) (log10 of the value in µM·h)

compound: CCc1n[n+]([O-])c2cc(OCCCN3CCOCC3)ccc2[n+]1[O-]
reported-measurement: 0.85

compound: CCc1n[n+]([O-])c2ccc(OCCO)cc2[n+]1[O-]
reported-measurement: 1.99

compound: Cc1ccc2c(c1)[n+]([O-])c(CCO)n[n+]2[O-]
reported-measurement: 1.35

compound: CCc1n[n+]([O-])c2cc(OCCCO)ccc2[n+]1[O-]
reported-measurement: 1.50

compound: CCc1n[n+]([O-])c2ccc(OCCCO)cc2[n+]1[O-]
reported-measurement: 2.04

compound: [O-][n+]1nc(CCO)[n+]([O-])c2ccccc21
reported-measurement: 1.26

----------
Experiment: Solubility in culture medium in presence of 5% fetal calf serum
Assay type: physicochemical
Details: culture medium with 5% fetal calf serum
Threshold rule: solubility greater than or equal to 20 mM is true; below that, false.

compound: CCc1n[n+]([O-])c2ccc(OCCCN3CCOCC3)cc2[n+]1[O-].Cl
label: true

compound: CCc1n[n+]([O-])c2cc(OCCCO)ccc2[n+]1[O-].Cl
label: false

compound: CCc1n[n+]([O-])c2ccc(OC)cc2[n+]1[O-].Cl
label: false

compound: CCc1n[n+]([O-])c2cc(OCCCN3CCOCC3)ccc2[n+]1[O-].Cl
label: true

compound: CCc1n[n+]([O-])c2cc(OCCOC)ccc2[n+]1[O-].Cl
label: false

compound: Cl.[O-][n+]1nc(CCO)[n+]([O-])c2ccccc21
label: true

compound: CCc1n[n+]([O-])c2ccc(OCCN3CCCCC3)cc2[n+]1[O-].Cl
label: true

compound: CCc1n[n+]([O-])c2ccc(OCCN(C)C)cc2[n+]1[O-].Cl
label: true

compound: Cl.[O-][n+]1nc(-c2ccccc2)[n+]([O-])c2ccccc21
label: false

compound: CCc1n[n+]([O-])c2ccc(OCCCO)cc2[n+]1[O-].Cl
label: false

compound: COCCCc1n[n+]([O-])c2ccccc2[n+]1[O-].Cl
label: true

compound: Cl.[O-][n+]1nc(CCCN2CCOCC2)[n+]([O-])c2ccccc21
label: true

compound: CCc1n[n+]([O-])c2ccc(C)cc2[n+]1[O-].Cl
label: false

compound: Cl.[O-][n+]1nc(CCN2CCOCC2)[n+]([O-])c2ccccc21
label: true

compound: Cl.[O-][n+]1nc(CCCO)[n+]([O-])c2ccccc21
label: true

----------
Assay: Terminal half life in CD1 mouse plasma at 316 umol/kg, ip
Format: ADME, organism-based

compound: CCc1n[n+]([O-])c2cc(OCCCN3CCOCC3)ccc2[n+]1[O-]
measure-unit: min
half-life: 36
